assay: Evaluation of conversion rate to active form in buffer solution (Experimental Example 1); format: physicochemical; settings: pH7.0, 0.5 hr, 37° C., 25 umol/L in buffer solution
Counter-ions that a name gives are not always drawn.
Parameter threshold = 30%. Response is met when Production rate of Alvocidib meets or exceeds it, else not met.

[
  {
    "molecule": "CN1CC[C@H](c2c(OC(=O)N(C)C[C@@H]3CCCCN3)cc(O)c3c(=O)cc(-c4ccccc4Cl)oc23)[C@H](O)C1 [Example 3]",
    "category label": "not met"
  },
  {
    "molecule": "CCN(C[C@@H]1CCCCN1)C(=O)Oc1cc(O)c2c(=O)cc(-c3ccccc3Cl)oc2c1[C@H]1CCN(C)C[C@H]1O [Example 1, ditrifluoroacetate]",
    "category label": "not met"
  },
  {
    "molecule": "CCCN(C[C@@H]1CCCCN1)C(=O)Oc1cc(O)c2c(=O)cc(-c3ccccc3Cl)oc2c1[C@H]1CCN(C)C[C@H]1O [Example 5]",
    "category label": "not met"
  },
  {
    "molecule": "CCCN(CC1CCCCN1)C(=O)Oc1cc(O)c2c(=O)cc(-c3ccccc3Cl)oc2c1[C@H]1CCN(C)C[C@H]1O (stereo partly shown) [Example 9]",
    "category label": "not met"
  },
  {
    "molecule": "CCN(CC1CCCCN1)C(=O)Oc1cc(O)c2c(=O)cc(-c3ccccc3Cl)oc2c1[C@H]1CCN(C)C[C@H]1O (stereo partly shown) [Example 7, dihydrochloride]",
    "category label": "not met"
  },
  {
    "molecule": "CC(C)N(CC1CCCCN1)C(=O)Oc1cc(O)c2c(=O)cc(-c3ccccc3Cl)oc2c1[C@H]1CCN(C)C[C@H]1O (stereo partly shown) [Example 10]",
    "category label": "not met"
  },
  {
    "molecule": "CN1CC[C@H](c2c(OC(=O)N(CCC(F)(F)F)CC3CCCCN3)cc(O)c3c(=O)cc(-c4ccccc4Cl)oc23)[C@H](O)C1 (stereo partly shown) [Example 13]",
    "category label": "met"
  },
  {
    "molecule": "CN1CC[C@H](c2c(OC(=O)N(C)CC3CCCCN3)cc(O)c3c(=O)cc(-c4ccccc4Cl)oc23)[C@H](O)C1 (stereo partly shown) [Example 8]",
    "category label": "not met"
  },
  {
    "molecule": "CCCN(C[C@H]1CCCCN1)C(=O)Oc1cc(O)c2c(=O)cc(-c3ccccc3Cl)oc2c1[C@H]1CCN(C)C[C@H]1O [Example 6]",
    "category label": "not met"
  },
  {
    "molecule": "CN1CC[C@H](c2c(OC(=O)N(Cc3ccccc3)CC3CCCCN3)cc(O)c3c(=O)cc(-c4ccccc4Cl)oc23)[C@H](O)C1 (stereo partly shown) [Example 15]",
    "category label": "met"
  },
  {
    "molecule": "CCN(C[C@H]1CCCCN1)C(=O)Oc1cc(O)c2c(=O)cc(-c3ccccc3Cl)oc2c1[C@H]1CCN(C)C[C@H]1O [Example 2]",
    "category label": "not met"
  },
  {
    "molecule": "CCNC(=O)Oc1cc(O)c2c(=O)cc(-c3ccccc3Cl)oc2c1[C@H]1CCN(C)C[C@H]1O [Comparative Example 1, reference compound]",
    "category label": "met"
  }
]
